molecular target: HIV-1 integrase (Human immunodeficiency virus type 1 group M subtype B)
pIC50: −log10 of the molar value.
Decision: pIC50 compared against 5; not below it gives 1, below it gives 0.

molecule	assignedCategory
CCOC(=O)c1[nH]c2ccccc2c1Nc1ccccc1Cl	0
CCOC(=O)c1cc2ccc(Nc3ccccc3OC)cc2[nH]1 [Compound 16e]	0
O=C(O)c1cc2ccc(Nc3ccc(Br)cc3)cc2[nH]1 [Compound 17b]	1
CCOC(=O)c1[nH]c2ccccc2c1Nc1ccc(F)cc1	0
CCOC(=O)c1[nH]c2ccccc2c1Nc1ccc(OC)cc1	0
O=C(O)c1cc2ccc(Nc3ccc(F)cc3)cc2[nH]1 [Compound 17a]	1

* * *

HIV-1 integrase (Human immunodeficiency virus type 1 group M subtype B, UniProt P04585): recorded pIC50 for assorted compounds
pIC50: −log10 of the molar value.

compound	valueModifier	pIC50
COc1ccccc1Nc1ccc2cc(C(=O)O)[nH]c2c1 [Compound 17e]	=	5.15
CCOC(=O)c1cc2ccc(NCc3ccccc3Cl)cc2[nH]1 [Compound 16i]	=	4.83
CCOC(=O)c1[nH]c2ccc(NC(=O)c3ccc(F)cc3)cc2c1Br [Compound 13a]	=	4.58
CCOC(=O)c1cc2ccc(Nc3ccc(Br)cc3)cc2[nH]1 [Compound 16b]	<	4.40
CCOC(=O)c1cc2ccc(Nc3cccc(OC)c3)cc2[nH]1 [Compound 16d]	<	4.40
CCOC(=O)c1cc2ccc(NCc3ccccc3F)cc2[nH]1 [Compound 16h]	=	5.06
CCOC(=O)c1cc2ccc(Nc3ccc(OC)cc3)cc2[nH]1 [Compound 16c]	<	4.40
CCOC(=O)c1[nH]c2ccc(NC(=O)c3cnccn3)cc2c1Br [Compound 13b]	=	4.93
COc1ccc(Nc2ccc3cc(C(=O)O)[nH]c3c2)cc1F [Compound 17f]	=	4.85
CCOC(=O)c1cc2ccc(NCc3cccc(F)c3)cc2[nH]1 [Compound 16g]	<	4.40
CCOC(=O)c1cc2ccc(Nc3ccc(F)cc3)cc2[nH]1 [Compound 16a]	<	4.40
CCOC(=O)c1[nH]c2ccccc2c1Nc1ccc(OC)c(F)c1	=	4.81
O=C(O)c1cc2ccc(NCc3cccc(F)c3)cc2[nH]1 [Compound 17g]	=	4.81
CCOC(=O)c1cc2ccc(NCCc3ccc(F)cc3)cc2[nH]1 [Compound 16k]	<	4.40
CCOC(=O)c1cc2ccc(Nc3ccc(OC)c(F)c3)cc2[nH]1 [Compound 16f]	<	4.40
O=C(O)c1cc2ccccc2[nH]1	=	4.49

* * *

Below: a set of entries, each annotated with reported pIC50.
molecular target: HIV-1 integrase (Human immunodeficiency virus type 1 group M subtype B)
pIC50: −log10 of the molar value.

compound	pIC50
CCOC(=O)c1[nH]c2ccccc2c1Nc1ccccc1OC	5.00
COc1ccc(Nc2ccc3cc(C(=O)O)[nH]c3c2)cc1 [Compound 17c]	4.91
CCOC(=O)c1[nH]c2ccccc2c1Nc1cccc(OC)c1	4.99
CCOC(=O)c1cc2ccc(NCc3ccc(OC)cc3)cc2[nH]1 [Compound 16j]	5.01
